Tested on: RPMI-8226 leukemia
test: NCI-60 one-dose screen, 48 h
applied-conditions: 10 µM unless noted
Compounds without any hit were thinned out: in the full panel of roughly 83,000, 20% have a hit. Active and inactive are the calls of the source. How the source made its calls: active means growth percent below 10; inactive means the rest.
Hi! Could you answer with just one of these? Yes = active, No = inactive

Recorded test outcome, item CC(=O)O[C@@H]1CCN2C(=O)N(C)c3ccccc3[C@@H]2C1
No

Request: C#CCn1c(C)cc(C)c(C#N)c1=O
No

And the next one, O=c1c(CNc2ccc(S(=O)(=O)Nc3nccs3)cc2)coc2ccccc12 ?
No

Now give it for COc1ccc(OC)c(-c2c(C#N)c(-c3ccco3)nc3c2c(-c2ccccc2)nn3-c2ccccc2)c1 too.
No

How about Cn1cc(-c2csc(-c3cn(CCNC(=O)OC(C)(C)C)c4ccccc34)n2)c2cccnc21 ?
No

// same read-out, input: CCCCC[C@H]1C/C=C2/C(=O)C=C[C@@H]2C/C=C\CCCC(=O)O[C@@H](CCCCC)C/C=C2/C(=O)C=C[C@@H]2C/C=C\CCCC(=O)O1
Yes

Another compound to check: COc1ccc(C(=O)c2ccc(C)cc2)c(OC)c1OC
No

// same read-out, input: C/C(=N\NC(=O)C(C)SC(C)C(=O)N/N=C(\C)c1cccnc1)c1cccnc1 (centres undefined)
No

Check Cn1cc(-c2nc(-c3c[nH]c4ncccc34)cs2)c2ccccc21 too.
No

Note, next up: N=c1ccc2nc3c(cc(N)c4ccccc43)oc-2c1
Yes

Please do the same for COc1cccc(-c2nn(-c3ccccc3)cc2-c2ccnc(NCCCNS(=O)(=O)c3ccc(C(F)(F)F)cc3)c2)c1 as well.
No

Field entry: COc1ccc(-c2cc(/C=C/C(=O)c3ccc(N)cc3)[nH]n2)cc1
Yes

Also need Oc1cccc2ccc(N/N=C/c3cc(CN4CCCCC4)c(O)c4ncccc34)nc12 , thanks.
Yes

Also check CC/C(=N/NC(N)=O)c1ccccc1
No

This collection of values is drawn from PubChem BioAssay (NCI).
